Source of measurements: patent US20080214646A1

# System: pig liver esterase
# condition set: 1.5 h, pH 7.4
assay metric: % of Nitric oxide released, PLE (%)
Give bare numbers, in %.

Reference set, count: 3
COc1ccc2c(c1)c(CC(=O)OCON=[N+]([O-])N(C)C)c(C)n2C(=O)c1ccc(Cl)cc1 [Compound 16] :: 16.9
CC(=O)Oc1ccccc1C(=O)OCON=[N+]([O-])N1CCCC1 [Compound 11] :: 18.5
COc1ccc2c(c1)c(CC(=O)OCON=[N+]([O-])N1CCCC1)c(C)n2C(=O)c1ccc(Cl)cc1 [Compound 15] :: 16.3

// batch mode: one % of Nitric oxide released, PLE value per listed entry
1. CC(C)Cc1ccc(C(C)C(=O)OCON=[N+]([O-])N(C)C)cc1 (stereo not drawn) [Compound 14]
2. CC(=O)Oc1ccccc1C(=O)OCON=[N+]([O-])N(C)C [Compound 12]
3. CC(C)Cc1ccc(C(C)C(=O)OCON=[N+]([O-])N2CCCC2)cc1 (stereo not drawn) [Compound 13]

17.3
19.1
16.3

----------
I'd be grateful if you could share measured % of Nitric oxide released, PBS (pH 7.4) for these entries.
# assay: Nitric oxide release in phosphate buffer (Griess reaction)
# Format: physicochemical
# condition set: PBS pH 7.4, 37° C., 1.5 h; relative to theoretical maximum 2 mol NO/mol
Numbers only, in %.

Reference set, count: 5
CC(C)Cc1ccc(C(C)C(=O)OCON=[N+]([O-])N(C)C)cc1 (centres unmarked) :: 16.1
CC(=O)Oc1ccccc1C(=O)OCON=[N+]([O-])N(C)C :: 15.4
COc1ccc2c(c1)c(CC(=O)OCON=[N+]([O-])N(C)C)c(C)n2C(=O)c1ccc(Cl)cc1 :: 14.3
[Na+].[O-]N=[N+]([O-])N1CCCC1 [reference compound] :: 94.0
CC(=O)Oc1ccccc1C(=O)OCON=[N+]([O-])N1CCCC1 :: 14.8

// batch mode: one % of Nitric oxide released, PBS (pH 7.4) value per listed entry
1. CC(C)Cc1ccc(C(C)C(=O)OCON=[N+]([O-])N2CCCC2)cc1 (centres unmarked)
2. CN(C)[N+]([O-])=N[O-].[Na+] [Compound 7, reference compound]
3. COc1ccc2c(c1)c(CC(=O)OCON=[N+]([O-])N1CCCC1)c(C)n2C(=O)c1ccc(Cl)cc1

[14.9, 95.2, 15.1]
